# TGT: T1, human TL1A extracellular domain with N-terminal HIS and FLAG tag (human, UniProt O95150 72-251)
# T1 sequence: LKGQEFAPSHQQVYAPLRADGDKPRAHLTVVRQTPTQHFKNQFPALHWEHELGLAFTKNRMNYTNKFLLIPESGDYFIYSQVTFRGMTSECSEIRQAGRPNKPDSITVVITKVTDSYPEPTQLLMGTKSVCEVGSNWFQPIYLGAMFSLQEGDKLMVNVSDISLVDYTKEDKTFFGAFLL
# MEASUREMENT_NOTES: cell-based or functional assay
Listed here: items and their measured Fold improvement over 320-179, TL1A induced caspase potency assay in TF-1 cells.
Numeric answer only, unit fold assumed.

BINDER: 320-595 (antibody, human IgG1, name in Kabat numbering, V domains shown, full-length human IgG1, lambda) VH: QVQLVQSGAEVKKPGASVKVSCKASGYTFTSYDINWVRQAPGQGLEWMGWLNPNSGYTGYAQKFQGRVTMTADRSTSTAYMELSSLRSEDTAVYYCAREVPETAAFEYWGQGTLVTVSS VL: QSVLTQPPSVSGAPGQRVTISCTSSSSDIGAGLGVLWYQQLPGTAPKLLIEGYYNRPSGVPDRFSGSKSGTSASLTITGLLPEDEGDYYCQSWDGTLSALFGGGTKLTVLG
REPORTED_MEASUREMENT: 20
//
BINDER: 320-611 (antibody, human IgG1, name in Kabat numbering, V domains shown, full-length human IgG1, lambda) VH: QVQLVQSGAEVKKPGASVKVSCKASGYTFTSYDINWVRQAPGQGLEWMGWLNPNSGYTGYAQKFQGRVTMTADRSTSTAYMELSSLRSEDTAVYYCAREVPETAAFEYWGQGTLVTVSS VL: QSVLTQPPSVSGAPGQRVTISCTSSSSDIGAGLGVHWYQQLPGTAPKLLIEGYYNRPSGVPDRFSGSKSGTSASLTITGLLPEDEGDYYCQSWDKTLSALFGGGTKLTVLG
REPORTED_MEASUREMENT: 8

Continue with the binder presented below.
Please give the measured Fold improvement over 320-179, TL1A induced caspase potency assay in TF-1 cells for this binder: 320-277 (antibody, human IgG1, V domains shown) VH: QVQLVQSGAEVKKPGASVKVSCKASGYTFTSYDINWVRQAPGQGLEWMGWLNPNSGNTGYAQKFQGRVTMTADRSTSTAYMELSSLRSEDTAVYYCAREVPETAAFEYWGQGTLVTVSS VL: QSVLTQPPSVSGAPGQRVTISCTSSSSDIGAGSGVHWYQQLPGTAPKLLIEGYYNRPSGVPDRFSGSKSGTSASLTITGLLPEDEGDYYCQSYDGTLSALFGGGTKLTVLG
3

Reference source: patent US20170081400A1
